# TESTED ON: TRPV3 L591A mutant (Homo sapiens, UniProt Q8NET8, L591A)
# Construct: YFP or GFP
# Sequence (Q8NET8 whole entry L591A): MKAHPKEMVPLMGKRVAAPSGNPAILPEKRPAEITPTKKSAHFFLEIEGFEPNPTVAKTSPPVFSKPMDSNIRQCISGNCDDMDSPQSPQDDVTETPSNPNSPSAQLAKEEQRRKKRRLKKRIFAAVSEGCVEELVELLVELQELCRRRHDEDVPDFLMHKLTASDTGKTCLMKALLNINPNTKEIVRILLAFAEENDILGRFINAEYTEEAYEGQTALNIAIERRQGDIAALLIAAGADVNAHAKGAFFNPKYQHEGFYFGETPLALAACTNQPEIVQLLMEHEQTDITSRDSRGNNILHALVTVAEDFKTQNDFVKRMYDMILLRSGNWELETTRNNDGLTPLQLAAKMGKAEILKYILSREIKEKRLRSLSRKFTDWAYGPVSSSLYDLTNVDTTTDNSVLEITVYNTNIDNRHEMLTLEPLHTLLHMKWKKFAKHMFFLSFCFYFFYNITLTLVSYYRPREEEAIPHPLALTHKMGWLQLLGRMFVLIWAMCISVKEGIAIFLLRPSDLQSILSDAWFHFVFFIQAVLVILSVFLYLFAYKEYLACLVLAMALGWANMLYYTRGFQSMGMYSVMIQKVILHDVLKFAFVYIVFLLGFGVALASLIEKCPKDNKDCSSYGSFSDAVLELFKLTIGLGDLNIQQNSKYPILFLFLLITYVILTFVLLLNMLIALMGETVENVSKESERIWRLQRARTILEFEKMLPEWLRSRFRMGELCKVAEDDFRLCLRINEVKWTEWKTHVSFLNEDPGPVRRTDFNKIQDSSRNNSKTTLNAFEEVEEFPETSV
# TEST PROTOCOL: Whole-cell recording of TRPV3 L591A mutant
# CONDITIONS: 1 mM 2-APB, ± 80 mV
MEASUREMENT TYPE: IC50 (µM)
Kindly provide the numeric value in µM only, without the unit symbol.

Param readout= IC50; system= TRPV3 L591A mutant (Homo sapiens, UniProt Q8NET8, L591A); entry= CCN(CCO)CCCC(C)Nc1ccnc2cc(Cl)ccc12 (stereo not shown) [HCQ, hydroxychloroquine] ; returns value.
203

###

# TESTED ON: TRPV3 (Homo sapiens)
# Construct: YFP or GFP; expressed in transfected cells; host or cells: HEK293T
# TEST PROTOCOL: Whole-cell patch-clamp recordings of TRPV3 currents in transfected HEK293T cells
# Format: cell-based
# CONDITIONS: whole-cell, ± 80 mV, 1 mM carvacrol; read-out: IC50, inhibition of TRPV3 current induced by carvacrol
MEASUREMENT TYPE: pIC50
Hey, just a heads up that pIC50 is the negative log base 10 of the concentration in molar.

If you can, please state the reported pIC50 value of CCN(CCO)CCCC(C)Nc1ccnc2cc(Cl)ccc12 (stereo not shown) [HCQ, hydroxychloroquine] .
5.97

###

# TESTED ON: mTRPM8 (Mus musculus)
# Construct: YFP or GFP
# Sequence (Q8R4D5 whole entry): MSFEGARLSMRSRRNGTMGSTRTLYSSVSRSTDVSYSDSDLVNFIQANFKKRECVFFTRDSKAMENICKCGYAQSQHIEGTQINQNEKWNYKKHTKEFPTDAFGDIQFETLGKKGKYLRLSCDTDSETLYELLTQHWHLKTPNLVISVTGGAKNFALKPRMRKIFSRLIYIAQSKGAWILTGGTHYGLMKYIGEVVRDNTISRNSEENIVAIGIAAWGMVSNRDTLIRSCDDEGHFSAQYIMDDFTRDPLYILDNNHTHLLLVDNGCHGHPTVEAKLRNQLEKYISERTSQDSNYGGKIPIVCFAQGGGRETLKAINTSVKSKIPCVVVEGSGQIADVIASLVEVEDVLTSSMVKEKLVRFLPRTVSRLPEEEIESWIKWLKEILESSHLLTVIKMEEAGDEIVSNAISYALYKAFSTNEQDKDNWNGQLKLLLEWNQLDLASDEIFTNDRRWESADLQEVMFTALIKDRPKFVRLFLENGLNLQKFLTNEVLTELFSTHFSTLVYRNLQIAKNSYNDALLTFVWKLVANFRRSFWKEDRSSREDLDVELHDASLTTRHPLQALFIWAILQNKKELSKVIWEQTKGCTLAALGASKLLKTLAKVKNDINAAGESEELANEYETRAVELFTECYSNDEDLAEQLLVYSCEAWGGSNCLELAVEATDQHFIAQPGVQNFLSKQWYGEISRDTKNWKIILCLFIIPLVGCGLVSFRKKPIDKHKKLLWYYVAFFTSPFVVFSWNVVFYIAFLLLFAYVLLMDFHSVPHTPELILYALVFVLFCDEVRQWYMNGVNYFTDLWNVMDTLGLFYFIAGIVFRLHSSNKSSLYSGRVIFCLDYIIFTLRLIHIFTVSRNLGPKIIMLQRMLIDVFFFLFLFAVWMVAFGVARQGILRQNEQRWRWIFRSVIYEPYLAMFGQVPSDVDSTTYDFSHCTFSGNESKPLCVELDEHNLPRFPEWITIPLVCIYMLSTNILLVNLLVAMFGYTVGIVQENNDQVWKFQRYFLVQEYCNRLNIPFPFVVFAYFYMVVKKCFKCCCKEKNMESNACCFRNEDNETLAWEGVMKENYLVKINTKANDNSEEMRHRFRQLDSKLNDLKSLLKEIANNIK
# TEST PROTOCOL: Whole-cell current recordings, mTRPM8
# CONDITIONS: concentration dependence, whole-cell; read-out: IC50 on mTRPM8 channels
MEASUREMENT TYPE: IC50 (µM)
Answer in µM, number only, no unit symbol.

Fill in: IC50 of CCN(CCO)CCCC(C)Nc1ccnc2cc(Cl)ccc12 (stereo not shown) [HCQ, hydroxychloroquine] is ___
263

###

# TESTED ON: TRPV3 (Homo sapiens, UniProt Q8NET8)
# Construct: YFP or GFP; expressed in transfected cells; host or cells: HEK293T
# Sequence (Q8NET8 whole entry): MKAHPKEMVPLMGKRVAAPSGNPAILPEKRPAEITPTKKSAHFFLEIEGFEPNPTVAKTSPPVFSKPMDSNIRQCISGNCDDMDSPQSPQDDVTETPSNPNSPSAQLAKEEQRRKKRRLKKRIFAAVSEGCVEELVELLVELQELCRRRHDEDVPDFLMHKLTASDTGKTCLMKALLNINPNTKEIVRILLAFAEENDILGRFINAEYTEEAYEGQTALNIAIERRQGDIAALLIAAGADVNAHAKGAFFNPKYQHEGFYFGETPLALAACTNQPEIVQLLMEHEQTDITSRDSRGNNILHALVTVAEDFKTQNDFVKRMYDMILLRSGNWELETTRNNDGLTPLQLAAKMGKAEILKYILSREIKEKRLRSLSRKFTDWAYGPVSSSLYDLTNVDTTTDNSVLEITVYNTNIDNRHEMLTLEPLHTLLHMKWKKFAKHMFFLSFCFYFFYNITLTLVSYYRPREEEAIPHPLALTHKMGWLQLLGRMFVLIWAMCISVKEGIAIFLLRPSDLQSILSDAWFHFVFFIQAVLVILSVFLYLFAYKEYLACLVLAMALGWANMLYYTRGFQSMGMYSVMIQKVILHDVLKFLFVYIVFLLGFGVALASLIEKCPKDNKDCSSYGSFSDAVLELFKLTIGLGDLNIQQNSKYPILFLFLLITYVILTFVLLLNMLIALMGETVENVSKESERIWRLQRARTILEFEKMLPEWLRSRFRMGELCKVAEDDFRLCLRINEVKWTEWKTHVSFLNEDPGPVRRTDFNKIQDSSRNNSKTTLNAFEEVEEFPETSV
# TEST PROTOCOL: Whole-cell patch-clamp recordings of TRPV3 currents in transfected HEK293T cells
# Format: cell-based
# CONDITIONS: HEK293T cells expressing TRPV3, whole-cell, ± 80 mV, 1 mM 2-APB; read-out: IC50, inhibition of TRPV3 currents induced by 1 mM 2-APB
# Method: HEK293T cells are cultured using Dulbecco's modified Eagle's medium containing 10% fetal bovine serum and 1% penicillin-streptomycin in a cell incubator with 5% CO2 at 37 °C. Plasmids of murine TRPV1, TRPV4, TRPM8, and human TRPV3, TRPA1 are labeled with YFP or GFP as indicators for subsequent electrophysiological recordings. […] All data from whole-cell recordings were analyzed in Igor Pro (WaveMetrics). IC50 values were determined by fitting the Hill equation to concentration-response relationships. […]
MEASUREMENT TYPE: IC50

# input compound: CCN(CCO)CCCC(C)Nc1ccnc2cc(Cl)ccc12 (stereo not shown) [HCQ, hydroxychloroquine] ; wanted: its IC50
51.7 µM
